src = paper PMC12920294

# tissue uptake at 4 h annotations
# procedure.details: in vivo
# cond: CD1 nude, mouse, 0.5 nmol/mouse, total radioactivity, Blood uptake
Numbers only; they are read as %ID/g.

INPUT: Determine its reported tissue uptake at 4 h: Cc1ccc(CCCC(=O)NCCOCCOCCOCCOCCC(=O)NCCCC[C@H](NC(=O)CC[C@H](C(=O)O)N2CCN(CC(=O)O)CCN(CC(=O)O)CCN(CC(=O)O)CC2)C(=O)N[C@@H](CC(=O)O)C(=O)N[C@@H](CC2CCCCC2)C(=O)N[C@@H](Cc2ccccc2)C(=O)N[C@H](CO)C(=O)N[C@H](CCCNC(=N)N)C(=O)N[C@@H](Cc2ccc(O)cc2)C(=O)N[C@@H](CC(C)C)C(=O)N[C@@H](Cc2c[nH]c3ccccc23)C(=O)N[C@@H](CO)C(N)=O)cc1 [[^177Lu]Lu-uPAR-17, metal not drawn]
OUTPUT: 6

INPUT: Determine its reported tissue uptake at 4 h: Cc1ccc(CCCC(=O)NCCOCCOCCOCCC(=O)NCCCC[C@H](NC(=O)CN2CCN(CC(=O)O)CCN(CC(=O)O)CCN(CC(=O)O)CC2)C(=O)N[C@@H](CC(=O)O)C(=O)N[C@@H](CC2CCCCC2)C(=O)N[C@@H](Cc2ccccc2)C(=O)N[C@H](CO)C(=O)N[C@H](CCCNC(=N)N)C(=O)N[C@@H](Cc2ccc(O)cc2)C(=O)N[C@@H](CC(C)C)C(=O)N[C@@H](Cc2c[nH]c3ccccc23)C(=O)N[C@@H](CO)C(N)=O)cc1 [[^177Lu]Lu-uPAR-15, metal not drawn]
OUTPUT: 4.5

INPUT: Determine its reported tissue uptake at 4 h: Cc1ccc(CCCC(=O)NCCOCCOCCOCCOCCOCCC(=O)NCCCC[C@H](NC(=O)CN2CCN(CC(=O)O)CCN(CC(=O)O)CCN(CC(=O)O)CC2)C(=O)N[C@@H](CC(=O)O)C(=O)N[C@@H](CC2CCCCC2)C(=O)N[C@@H](Cc2ccccc2)C(=O)N[C@H](CO)C(=O)N[C@H](CCCNC(=N)N)C(=O)N[C@@H](Cc2ccc(O)cc2)C(=O)N[C@@H](CC(C)C)C(=O)N[C@@H](Cc2c[nH]c3ccccc23)C(=O)N[C@@H](CO)C(N)=O)cc1 [[^177Lu]Lu-uPAR-18, metal not drawn]
OUTPUT: 3.4
